B1: TPR t1 (parent)
chain: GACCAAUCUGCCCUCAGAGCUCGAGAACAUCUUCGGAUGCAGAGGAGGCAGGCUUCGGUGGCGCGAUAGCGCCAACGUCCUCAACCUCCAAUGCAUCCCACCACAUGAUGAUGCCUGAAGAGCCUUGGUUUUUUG

# Variants of: B1
# Test Method Notes: polymerase ribozyme fitness, log enrichment relative to wild type (log ratio); higher = more active; in vitro selection for triplet polymerase activity
Measurement Name: polymerase ribozyme fitness (log ratio)

Sequence Change | Result
A50G G63U U130A | -2.47
C8G G45C G48A U54G | 0.0312
G36C U59A G69C C88A C101A | -2.89
A24U G117U | -6.09
C8G A27U C104A U133A | -3.65

# polymerase ribozyme fitness (log ratio) (variant: C40U U130G ) is -0.974

# polymerase ribozyme fitness (log ratio) (variant: G47U C64A U116G C124U ) is -6.49
